The reported numbers originate from the supplement of paper PMC10037445.

# Test system: RAW-Dual
# assay: NF-kB SEAP reporter activity, fold change vs agonist alone; cytotoxicity flag (confluency mask): not cytotoxic; higher = enhanced NF-kB activity
# condition.details: agonist: LPS (TLR4) 0.1 ug/mL
Over roughly 2,900 compounds, “NF-kB SEAP reporter activity, fold change vs agonist alone” has its median near 0.99; the highest 2% begin near 2.6. What follows is part of a selection rich in the highest values, with near analogues and random picks from the rest.
measurement.name: NF-kB SEAP reporter activity
Note: the reply should be a number with no unit written.

[
  {
    "compound": "Cc1cc(N2CC(C)NC(C)C2)ncc1-c1ccc(-c2nc3c(ccn3C)c(=O)[nH]2)cc1 (stereo unspecified) (library stock concentration (final ~1000-fold dilution): 10 mM)",
    "study.system": "RAW-Dual",
    "NF-kB SEAP reporter activity": 2.18
  },
  {
    "compound": "CCC1(O)C(=O)OCc2c1cc1n(c2=O)Cc2cc3cc(O)ccc3nc2-1 (stereo unspecified) (library stock concentration (final ~1000-fold dilution): 10 mM)",
    "study.system": "RAW-Dual",
    "NF-kB SEAP reporter activity": 1.08
  }
]

Prompt line: Which measured NF-kB SEAP reporter activity value corresponds to O=C(O)/C(S)=C/c1c[nH]c2ccc(F)cc12 (library stock concentration (final ~1000-fold dilution): 10 mM) ?
Response line: 0.886

Prompt line: Which measured NF-kB SEAP reporter activity value corresponds to COC1CCC(N2C(=O)CNc3ncc(-c4ccc(C(C)(C)O)nc4)nc32)CC1 (stereo unspecified) (library stock concentration (final ~1000-fold dilution): 10 mM) ?
Response line: 0.463

Prompt line: Which measured NF-kB SEAP reporter activity value corresponds to CC(C)C(NC(=O)c1ccc2ccccc2n1)C(=O)NC(CC(=O)O)C(=O)COc1c(F)cccc1F (stereo unspecified) (library stock concentration (final ~1000-fold dilution): 10 mM) ?
Response line: 1.05

Prompt line: Which measured NF-kB SEAP reporter activity value corresponds to CS(=O)(=O)c1ccc(C(=O)Nc2ccc(Cl)c(-c3ccccn3)c2)c(Cl)c1 (library stock concentration (final ~1000-fold dilution): 10 mM) ?
Response line: 1.19

----------
# System: RAW-Dual
# assay: NF-kB SEAP reporter activity, fold change vs agonist alone; cytotoxicity flag (confluency mask): not cytotoxic; higher = enhanced NF-kB activity
# condition.details: agonist: Pam3CSK4 (TLR2/1) 0.1 ug/mL
In all, about 2,900 compounds were measured (“NF-kB SEAP reporter activity, fold change vs agonist alone”: median about 0.99, highest 2% from about 2.6 on). The entries come from a sample that favours the highest values as a whole.
As shown below, each of these compounds has a reported NF-kB SEAP reporter activity value.
Note: the reply should be a number with no unit written.

[
  {
    "compound": "CC12CCC3C(CCC4C(C)(C(=O)O)CCCC34C)(CC1=O)C2 (stereo not drawn) (library stock concentration (final ~1000-fold dilution): 10 mM)",
    "NF-kB SEAP reporter activity": 1.02
  }
]

Prompt line: Which measured NF-kB SEAP reporter activity value corresponds to N=C(N)NCCCC1NC(=O)C(CCCCN)NC(=O)C(Cc2ccccc2)NC(=O)C(CC(=O)O)NC(=O)CNC1=O.O=C(O)C(F)(F)F (stereo not drawn) (library stock concentration (final ~1000-fold dilution): 10 mM) ?
Response line: 0.988

Prompt line: Which measured NF-kB SEAP reporter activity value corresponds to CCOC(=O)C(CCc1ccccc1)NC(C)C(=O)N1CCCC1C(=O)O.O=C(O)/C=C\C(=O)O (stereo not drawn) (library stock concentration (final ~1000-fold dilution): 10 mM) ?
Response line: 1.02
